test: Henry solubility constant Hcp at 301 K (mol/(m3 Pa)); conditions: reference: Nelson and Hoff (1968)
Please respond with reported Henry solubility constant Hcp at 301 K for every item in the list.
Format: numeric value only, no unit, no commentary.

Task item: Find the recorded Henry solubility constant Hcp at 301 K belonging to CC(C)=O and report it.
Reply: 0.31

Task item: Further, for CCOC(C)=O [ethyl ethanoate] ?
Reply: 0.057

Task item: Further, for CC(C)CC=O ?
Reply: 0.02

Task item: Further, for CCCC(C)=O ?
Reply: 0.092

====

test: Henry solubility constant Hcp at 298.15 K (mol/(m3 Pa)); details: reference: Chen et al. (2012)
Please respond with reported Henry solubility constant Hcp for every item in the list.
Format: numeric value only, no unit, no commentary.

Task item: Find the recorded Henry solubility constant Hcp belonging to CCCl and report it.
Reply: 0.00076

Task item: Further, for ClC(Cl)(Cl)Cl ?
Reply: 0.0003

Task item: Further, for CC(Cl)(Cl)Cl ?
Reply: 0.00054

Task item: Further, for ClC(Cl)=C(Cl)Cl ?
Reply: 0.00062

Task item: Further, for ClCCl ?
Reply: 0.0035

Task item: Further, for ClC=C(Cl)Cl ?
Reply: 0.001

Task item: Further, for C=CCl ?
Reply: 0.00041

====

assay: Henry solubility constant Hcp at 298.15 K (mol/(m3 Pa)); details: reference: Reichl (1995)
Outcome measure: Henry solubility constant Hcp
Format: numeric value only, no unit, no commentary.

Task item: Find the recorded Henry solubility constant Hcp belonging to FC(F)(Cl)C(F)(F)Cl and report it.
Reply: 9e-06

Task item: Further, for FC(F)(F)C(F)(F)Cl ?
Reply: 3.1e-06

Task item: Further, for FC(F)=CCl ?
Reply: 0.00017

Task item: Further, for FCF ?
Reply: 0.00069

Task item: Further, for CC(F)(F)Cl ?
Reply: 0.00014

Task item: Further, for FC(C(F)(F)F)C(F)(F)F ?
Reply: 1.4e-05

====

assay: Henry solubility constant Hcp at 298.15 K (mol/(m3 Pa)); conditions: reference: Bissonette et al. (1990)
Please respond with reported Henry solubility constant Hcp for every item in the list.
Format: numeric value only, no unit, no commentary.

Task item: Find the recorded Henry solubility constant Hcp belonging to C=Cc1ccccc1 and report it.
Reply: 0.0029

Task item: Further, for ClC(Cl)(Cl)Cl ?
Reply: 0.00028

Task item: Further, for CC(Cl)CCl (centres undefined) ?
Reply: 0.003

Task item: Further, for Clc1ccccc1 ?
Reply: 0.0024

Task item: Further, for CC(Cl)(Cl)Cl ?
Reply: 0.00051

Task item: Further, for Cc1cccc(C)c1 ?
Reply: 0.0014

Task item: Further, for Cc1ccccc1 ?
Reply: 0.0014

Task item: Further, for Cc1ccc(C)cc1 ?
Reply: 0.0012

Task item: Further, for ClC=C(Cl)Cl ?
Reply: 0.001

Task item: Further, for C=C(Cl)Cl ?
Reply: 0.00034

Task item: Further, for Cc1ccccc1C ?
Reply: 0.0021

Task item: Further, for c1ccccc1 ?
Reply: 0.0016

Task item: Further, for ClC(Cl)=C(Cl)Cl ?
Reply: 0.00062

Task item: Further, for CCc1ccccc1 ?
Reply: 0.0011

====

test: Henry solubility constant Hcp at 298.15 K (mol/(m3 Pa)); conditions: reference: von Antropoff (1910)
Outcome measure: Henry solubility constant Hcp
Format: numeric value only, no unit, no commentary.

Task item: Find the recorded Henry solubility constant Hcp belonging to [He] and report it.
Reply: 6.3e-06

Task item: Further, for [Ar] ?
Reply: 1.6e-05

Task item: Further, for [Ne] ?
Reply: 6.6e-06

Task item: Further, for [Xe] ?
Reply: 4.4e-05

====

assay: Henry solubility constant Hcp at 278 K (mol/(m3 Pa)); conditions: reference: Sauer (1997)
Please respond with reported Henry solubility constant Hcp at 278 K for every item in the list.
Format: numeric value only, no unit, no commentary.

Task item: Find the recorded Henry solubility constant Hcp at 278 K belonging to COO [methyl hydroperoxide] and report it.
Reply: 12

Task item: Further, for O=COO [methanoic peroxyacid] ?
Reply: 29

Task item: Further, for CCOO [ethyl hydroperoxide] ?
Reply: 11

Task item: Further, for CC(=O)OO [ethanoic peroxyacid] ?
Reply: 24

====

Please respond with reported Henry solubility constant Hcp for every item in the list.
assay: Henry solubility constant Hcp at 298.15 K (mol/(m3 Pa)); conditions: reference: Ondo and Dohnal (2007)
Format: numeric value only, no unit, no commentary.

Task item: Find the recorded Henry solubility constant Hcp belonging to C1COCO1 and report it.
Reply: 0.43

Task item: Further, for CCOCC ?
Reply: 0.01

Task item: Further, for COCOC ?
Reply: 0.063

Task item: Further, for COCCOC ?
Reply: 1.4

Task item: Further, for C1CCOCC1 [tetrahydropyran] ?
Reply: 0.083

====

experiment: Henry solubility constant Hcp at 298.15 K (mol/(m3 Pa)); settings: reference: Warner et al. (1980)
Please use Fulfilled whenever Henry solubility constant Hcp is not below 0.003, and Not fulfilled whenever it is.

Task item: Could you verify whether the entry CCc1ccccc1 [ethylbenzene] shows Henry solubility constant Hcp of no less than 0.003?
Reply: Not fulfilled

Task item: Further, for ClC1=C(Cl)[C@]2(Cl)[C@H]3[C@H]([C@@H]4C=C[C@H]3C4)[C@@]1(Cl)C2(Cl)Cl [aldrin] ?
Reply: Fulfilled

Task item: Further, for Clc1ccccc1 [chlorobenzene] ?
Reply: Not fulfilled

Task item: Further, for Cc1ccccc1 [methylbenzene] ?
Reply: Not fulfilled

Task item: Further, for ClC(Cl)=C(Cl)Cl [tetrachloroethene] ?
Reply: Not fulfilled

Task item: Further, for C=C(Cl)Cl [1,1-dichloroethene] ?
Reply: Not fulfilled

Task item: Further, for ClC1=C(Cl)C2(Cl)C3C4OC4C(Cl)C3C1(Cl)C2(Cl)Cl (centres undefined) [heptachlorepoxide] ?
Reply: Fulfilled

Task item: Further, for BrC(Br)Br [tribromomethane] ?
Reply: Fulfilled

Task item: Further, for ClC=C(Cl)Cl [trichloroethene] ?
Reply: Not fulfilled

Task item: Further, for ClC1=C(Cl)C(Cl)(Cl)C(Cl)=C1Cl [hexachlorocyclopentadiene] ?
Reply: Not fulfilled

Task item: Further, for ClCCl [dichloromethane] ?
Reply: Fulfilled

Task item: Further, for Clc1cccc(Cl)c1 [1,3-dichlorobenzene] ?
Reply: Fulfilled

Task item: Further, for c1ccccc1 [benzene] ?
Reply: Not fulfilled

Task item: Further, for c1ccc2c(c1)Cc1ccccc1-2 [2,3-benzindene] ?
Reply: Fulfilled

Task item: Further, for CC(Cl)(Cl)Cl [1,1,1-trichloroethane] ?
Reply: Not fulfilled

Task item: Further, for ClC(Cl)(Cl)C(Cl)(Cl)Cl [hexachloroethane] ?
Reply: Not fulfilled

Task item: Further, for c1cc2c3c(cccc3c1)CC2 [acenaphthene] ?
Reply: Fulfilled

Task item: Further, for C1=Cc2cccc3cccc1c23 [acenaphthylene] ?
Reply: Fulfilled

Task item: Further, for ClC=CCCl [1,3-dichloropropene] ?
Reply: Not fulfilled

====

assay: Henry solubility constant Hcp at 298.15 K (mol/(m3 Pa)); details: reference: Holzwarth et al. (1984)
Outcome measure: Henry solubility constant Hcp
Format: numeric value only, no unit, no commentary.

Task item: Find the recorded Henry solubility constant Hcp belonging to ClNCl [dichloramine] and report it.
Reply: 0.28

Task item: Further, for NCl [chloramine] ?
Reply: 0.92

Task item: Further, for ClN(Cl)Cl [nitrogen trichloride] ?
Reply: 0.00099

Task item: Further, for OCl [hypochlorous acid] ?
Reply: 6

====

test: Henry solubility constant Hcp at 298.15 K (mol/(m3 Pa)); settings: reference: Khan et al. (1995)
Outcome measure: Henry solubility constant Hcp
Format: numeric value only, no unit, no commentary.

Task item: Find the recorded Henry solubility constant Hcp belonging to CC(=O)C(=O)O and report it.
Reply: 3100

Task item: Further, for CC(C)CC(=O)O ?
Reply: 12

Task item: Further, for CCCCC(=O)O ?
Reply: 23

Task item: Further, for CCCCCC(=O)O ?
Reply: 13

====

assay: Henry solubility constant Hcp at 298.15 K (mol/(m3 Pa)); details: reference: Maaßen (1995)
Please use label 1 whenever Henry solubility constant Hcp is not below 0.0002, and label 0 whenever it is.

Task item: Could you verify whether the entry CC(F)(Cl)Cl shows Henry solubility constant Hcp of no less than 0.0002?
Reply: label 1

Task item: Further, for C=CC ?
Reply: label 0

Task item: Further, for C=C ?
Reply: label 0

Task item: Further, for FCC(F)(F)F ?
Reply: label 0

Task item: Further, for FC(F)=CCl ?
Reply: label 0

Task item: Further, for FC(Cl)C(F)(F)F (configuration not stated) ?
Reply: label 0

Task item: Further, for FCF ?
Reply: label 1
